Where do these numbers come from? They come from paper PMC8809517.

Listed here: items and their measured Kd.
- target: T1, GFP-9S library array, motif 4 ND N98M;D124S (synthetic construct, N98M;D124S)
- T1 chain: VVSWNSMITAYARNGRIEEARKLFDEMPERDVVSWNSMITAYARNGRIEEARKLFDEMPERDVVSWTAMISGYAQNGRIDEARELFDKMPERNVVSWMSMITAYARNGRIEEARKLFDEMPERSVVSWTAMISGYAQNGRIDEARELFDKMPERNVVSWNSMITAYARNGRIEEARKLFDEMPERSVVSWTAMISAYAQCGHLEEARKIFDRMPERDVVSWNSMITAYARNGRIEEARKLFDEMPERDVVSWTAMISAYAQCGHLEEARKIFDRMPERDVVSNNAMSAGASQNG
- testSummary: high-throughput RNA pulldown from lysate on Ni-NTA beads; HRP: 50 mM Tris pH 8, 150 mM NaCl, 1 mM beta-mercaptoethanol, 50 ug/ml BSA, 3 ug/ml yeast RNA, 0.5% heparin; ITC and FP: Tris pH 8, 200 mM KCl, 5% glycerol; MST: 50 mM Tris pH 8, 200 mM NaCl, 1 mM DTT, BSA, heparin, 0.05% Tween 20
- conditionDescription: tags: N-terminal His-eGFP; label: 5' Cy5
measuredParameter: Kd (nM)

> print(dat)
                             binder  measurednumber
1  AUUAGACGUGA (ssRNA) [Cy5-rpoA-G]            73.1
2    AUUACACGUGA (ssRNA) [Cy5-rpoA]            50.4
